Target: T1, cynomolgus IL-11 (cynomolgus, UniProt P20808 22-199)
T1 construct: Invigate, lot #C290621-19; also called cIL11; cynoL-11
T1 sequence: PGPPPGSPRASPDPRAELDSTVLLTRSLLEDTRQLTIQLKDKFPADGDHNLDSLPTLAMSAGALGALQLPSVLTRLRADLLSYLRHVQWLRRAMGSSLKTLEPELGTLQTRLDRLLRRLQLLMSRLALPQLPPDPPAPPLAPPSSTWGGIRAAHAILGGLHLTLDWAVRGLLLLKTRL
Test: SPR, antibody captured, IL-11 as analyte
Reported Endpoint: Kd (nM)
Response body: numeric value in nM, unit text excluded.

{"Binder": "TPP-29400 (antibody, human IgG1, V domains shown) VH: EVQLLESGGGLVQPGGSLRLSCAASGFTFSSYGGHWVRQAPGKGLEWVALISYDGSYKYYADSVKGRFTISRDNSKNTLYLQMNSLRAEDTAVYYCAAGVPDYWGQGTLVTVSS VL: QSVLTQPPSASGTPGQRVTISCSGSSSNIGSDYDVHWYQQLPGTAPKLLIYSNNERPSGVPDRFSGSKSGTSASLAISGLRSEDEADYYCAAWDFSLSGPVFGGGTKLTVL", "Result Units": "nM", "Kd": 0.35}

IN: Give the measured Kd for TPP-29391 (antibody, human IgG1, V domains shown) VH: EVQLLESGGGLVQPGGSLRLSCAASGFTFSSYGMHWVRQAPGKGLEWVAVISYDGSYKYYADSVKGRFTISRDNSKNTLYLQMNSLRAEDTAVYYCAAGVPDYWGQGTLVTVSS VL: QSVLTQPPSASGTPGQRVTISCSGSSSNIGSDYDVHWYQQLPGTAPKLLIYSNNERPSGVPDRFSGSKSGTSASLAISGLRSEDEADYYCAAWDSSLYGPVFGGGTKLTVL
OUT: 0.69

IN: Give the measured Kd for TPP-29401 (antibody, human IgG1, V domains shown) VH: EVQLLESGGGLVQPGGSLRLSCAASGFTFSSYGGHWVRQAPGKGLEWVAVISYDGSYKYYADSVKGRFTISRDNSKNTLYLQMNSLRAEDTAVYYCAAGVPDYWGQGTLVTVSS VL: QSVLTQPPSASGTPGQRVTISCSGSSSNIGSYYDVHWYQQLPGTAPKLLIYSNEERPSGVPDRFSGSKSGTSASLAISGLRSEDEADYYCAAWDDSLSGPVFGGGTKLTVL
OUT: 0.23

IN: Give the measured Kd for TPP-29397 (antibody, human IgG1, V domains shown) VH: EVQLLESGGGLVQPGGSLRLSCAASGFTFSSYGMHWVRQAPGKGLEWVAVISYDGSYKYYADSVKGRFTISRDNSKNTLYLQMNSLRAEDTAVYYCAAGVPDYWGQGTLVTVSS VL: QSVLTQPPSASGTPGQRVTISCSGSSSNIWSGYDVHWYQQLPGTAPKLLIYSNEERPSGVPDRFSGSKSGTSASLAISGLRSEDEADYYCAAWDSSLYGPVFGGGTKLTVL
OUT: 0.8

IN: Give the measured Kd for TPP-29396 (antibody, human IgG1, V domains shown) VH: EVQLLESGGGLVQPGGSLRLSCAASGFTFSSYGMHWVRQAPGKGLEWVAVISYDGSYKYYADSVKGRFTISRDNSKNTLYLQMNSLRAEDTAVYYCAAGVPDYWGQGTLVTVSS VL: QSVLTQPPSASGTPGQRVTISCSGSSSNIWSDYDVHWYQQLPGTAPKLLIYSNEERPSGVPDRFSGSKSGTSASLAISGLRSEDEADYYCAAWDFSLYGPVFGGGTKLTVL
OUT: 0.92

Taken from patent US20240317847A1.
